Listed next: entries and their corresponding EC50, CreLuc assay, 0.5% hP.
Biological target: T1, human GIP receptor (human, UniProt P48546 22-466)
T1 sequence (looked up): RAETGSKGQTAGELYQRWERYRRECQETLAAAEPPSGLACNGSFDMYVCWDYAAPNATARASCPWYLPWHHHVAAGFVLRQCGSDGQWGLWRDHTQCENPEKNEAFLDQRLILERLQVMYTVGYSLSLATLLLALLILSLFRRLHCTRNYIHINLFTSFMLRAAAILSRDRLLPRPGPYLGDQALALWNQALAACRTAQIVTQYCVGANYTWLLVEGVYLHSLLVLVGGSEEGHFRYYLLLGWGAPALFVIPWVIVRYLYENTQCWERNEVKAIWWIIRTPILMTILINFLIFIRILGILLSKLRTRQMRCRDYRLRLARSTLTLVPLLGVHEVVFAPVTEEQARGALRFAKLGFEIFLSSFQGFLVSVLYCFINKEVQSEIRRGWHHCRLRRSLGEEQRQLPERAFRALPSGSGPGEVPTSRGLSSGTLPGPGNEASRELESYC
Experiment: cell-based or functional assay
Starred links: 1 amine or outer side, 2 acyl side, 3 side chain; linkers in the order of their positions; H or OH if unused. Non-standard residues stand in square brackets, D forms with d. Groups on a side chain read outwards from the residue. No end group written: not given here. *: point of attachment. C20 diacid = O=C(O)CCCCCCCCCCCCCCCCCCC(=O)*; γGlu = O=C(O)[C@H](CCC(=O)[*:2])N[*:1]; εLys = N[C@@H](CCCCN[*:1])C(=O)[*:2]; Aib = CC(C)(N)C(=O)O
Express the reported value numerically, then name its unit.

INSERT INTO assay_data (binder, endpoint_result) VALUES
  ('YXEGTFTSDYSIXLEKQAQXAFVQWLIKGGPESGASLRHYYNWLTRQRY (Aib at 2, 13, 20; K28 side chain: C20DA-gGlu-gGlu-gGlu-gGlu-gGlu-OEG-OEG; C-terminal NH2) [Compound 32]', '0.16 nM'),
  ('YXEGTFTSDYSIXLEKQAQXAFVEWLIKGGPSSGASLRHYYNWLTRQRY (Aib at 2, 13, 20; NMeR 48; K28 side chain: C20DA-gGlu-gGlu-gGlu-gGlu-gGlu-gGlu-eLys; C-terminal NH2) [Compound 83]', '0.13 nM');

### Prompt Query EC50, CreLuc assay, 0.5% hP for Y[Aib]EGTFTSDYSI[Aib]LEKQAQ[Aib]AFVQWLIK([εLys-Glu-γGlu-γGlu-γGlu-γGlu-C20 diacid])GGPEYYASLRHYYNWLTRQRY-NH2 (also: TFA salt) [Compound 23]
### Response 0.56 nM
